test: Drug concentration in brain of monoiodoacetate-induced chronic Sprague-Dawley rat model of osteoarthritis at 10 mg/kg, po administered twice daily for 5 days; assay type: ADME, organism-based; conditions: time 5 day, read-out: Ct
Metric Name: concentration at 120 h (ng/mL)
Entry rule: numbers only, all in ng/mL.

Find the recorded concentration at 120 h belonging to `O=C(c1ccc2cc(Oc3ccc(C(F)(F)F)cn3)ccc2n1)N1CC[C@@H](F)C1` and report it.
4230

---

experiment: Drug concentration in brain of monoiodoacetate-induced Sprague-Dawley rat model of osteoarthritis at 3 mg/kg, po administered for 5 days and measured after 15 mins; assay type: ADME, organism-based; details: time 5 day, read-out: Ct
Metric Name: concentration at 120 h
I'd appreciate it if you included the unit after the number.

State the recorded concentration at 120 h for this entry: `O=C(c1ccc2cc(Oc3ccc(C(F)F)cn3)ccc2n1)N1CCNCC1`
200 ng/mL

---

test: Drug concentration in rat plasma assessed as free fraction; format: ADME, cell-free
Metric Name: fraction unbound
Respond with the number and no other words.

Can you look up the measured fraction unbound of `O=C(c1ccc2cc(Oc3ccc(C(F)(F)F)cn3)ccc2n1)N1CC[C@@H](F)C1` for me?
0.05

---

assay: Drug concentration in plasma of monoiodoacetate-induced Sprague-Dawley rat model of osteoarthritis at 3 mg/kg, po administered for 5 days and measured after 15 mins; assay type: ADME, organism-based; settings: time 5 day
Metric Name: concentration at 120 h (ng/mL)
Give the number; ng/mL is assumed, so skip it.

[
  {
    "Structure Smiles String": "O=C(c1ccc2cc(Oc3ccc(C(F)F)cn3)ccc2n1)N1CCNCC1",
    "concentration at 120 h / ng/mL": 1000
  }
]

What value of concentration at 120 h has been reported for the following compound? `O=C(c1ccc2cc(Oc3ccc(C(F)(F)F)cn3)ccc2n1)N1CCNCC1`
160

---

assay: Drug concentration in plasma of monoiodoacetate-induced acute Sprague-Dawley rat model of osteoarthritis at 10 mg/kg, po administered for 5 days and measured after 15 mins; assay type: ADME, organism-based; settings: time 5 day
Metric Name: concentration at 120 h (ng/mL)
Field: numeric (ng/mL). Do not append units.

Requested field: concentration at 120 h. Item: `O=C(c1ccc2cc(Oc3ccc(C(F)(F)F)cn3)ccc2n1)N1CC[C@@H](F)C1`
5180

---

Form: system (Voltage-gated inwardly rectifying potassium channel KCNH2 (Homo sapiens)), quantity (IC50), values below.
The reply should contain only the number, in µM.

Identify the measured IC50 of `NC(=O)CNC(=O)COc1ccc2cc(Oc3ccccn3)ccc2n1` for Voltage-gated inwardly rectifying potassium channel KCNH2 (Homo sapiens).
30

Quick check: IC50 on Voltage-gated inwardly rectifying potassium channel KCNH2 (Homo sapiens), item `O=C(c1ccc2cc(Oc3cnc(C(F)(F)F)cn3)ccc2n1)N1CCNCC1` ?
18.6

Request: IC50, test system Voltage-gated inwardly rectifying potassium channel KCNH2 (Homo sapiens), entry `O=C(c1ccc2cc(Oc3cccc(C(F)(F)F)n3)ccc2n1)N1CCNCC1`
12.8

Request: IC50, test system Voltage-gated inwardly rectifying potassium channel KCNH2 (Homo sapiens), entry `O=C1CN(C(=O)COc2ccc3cc(Oc4ccccn4)ccc3n2)CCN1`;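 also: hERG channel blockade measured by electrophysiology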
30

Observed IC50 on Voltage-gated inwardly rectifying potassium channel KCNH2 (Homo sapiens) for `N#Cc1ccc(-c2ccc3c(ccc(=O)n3CC(=O)N3CCCCC3)c2)cc1` , please.
Sequence (Q12809 whole entry): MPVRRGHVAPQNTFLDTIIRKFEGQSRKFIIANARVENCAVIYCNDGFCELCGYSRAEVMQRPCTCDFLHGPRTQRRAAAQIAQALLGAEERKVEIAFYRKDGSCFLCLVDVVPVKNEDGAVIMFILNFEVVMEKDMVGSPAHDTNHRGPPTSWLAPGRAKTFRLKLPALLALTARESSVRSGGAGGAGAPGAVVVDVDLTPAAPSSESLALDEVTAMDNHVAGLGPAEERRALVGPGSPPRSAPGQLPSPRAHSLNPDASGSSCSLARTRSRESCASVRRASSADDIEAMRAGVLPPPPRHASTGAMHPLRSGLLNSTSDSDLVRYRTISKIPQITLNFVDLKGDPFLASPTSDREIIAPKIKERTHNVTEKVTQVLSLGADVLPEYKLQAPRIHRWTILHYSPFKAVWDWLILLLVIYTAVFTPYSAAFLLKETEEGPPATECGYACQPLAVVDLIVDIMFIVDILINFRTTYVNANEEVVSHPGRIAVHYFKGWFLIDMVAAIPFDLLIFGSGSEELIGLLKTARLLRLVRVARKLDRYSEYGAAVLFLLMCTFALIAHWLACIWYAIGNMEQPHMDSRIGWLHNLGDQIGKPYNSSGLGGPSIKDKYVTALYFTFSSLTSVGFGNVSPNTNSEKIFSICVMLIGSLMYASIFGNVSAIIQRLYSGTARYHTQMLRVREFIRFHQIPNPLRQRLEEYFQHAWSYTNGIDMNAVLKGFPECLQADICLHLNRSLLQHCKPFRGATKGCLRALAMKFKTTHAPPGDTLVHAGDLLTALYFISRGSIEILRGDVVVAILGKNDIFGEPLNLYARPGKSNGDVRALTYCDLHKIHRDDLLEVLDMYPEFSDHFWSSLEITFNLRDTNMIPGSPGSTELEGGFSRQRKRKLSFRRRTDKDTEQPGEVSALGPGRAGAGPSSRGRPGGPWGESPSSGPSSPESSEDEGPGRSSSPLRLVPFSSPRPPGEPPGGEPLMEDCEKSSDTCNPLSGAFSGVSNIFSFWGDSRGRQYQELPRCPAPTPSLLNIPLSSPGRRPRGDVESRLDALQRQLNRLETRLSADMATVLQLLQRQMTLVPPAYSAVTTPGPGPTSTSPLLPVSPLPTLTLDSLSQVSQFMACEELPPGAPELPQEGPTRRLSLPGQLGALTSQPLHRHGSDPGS
17

---

test: Drug concentration in plasma of monoiodoacetate-induced acute Sprague-Dawley rat model of osteoarthritis at 3 mg/kg, po administered for 5 days and measured after 15 mins; type: ADME, organism-based; settings: time 5 day
Metric Name: concentration at 120 h (ng/mL)
Value expressed in ng/mL; do not type the unit.

State the recorded concentration at 120 h for this entry: `O=C(c1ccc2cc(Oc3ccc(C(F)(F)F)cn3)ccc2n1)N1CC[C@@H](F)C1`
1410

---

Entries with their measured IC50, system Sodium channel protein type 5 subunit alpha (Homo sapiens, UniProt Q14524):

Use these answered entries as a reference point.
[
  {
    "Compound": "O=C(NC1CC(F)(F)C1)c1ccc2cc(Oc3ccc(C(F)(F)F)cn3)ccc2n1",
    "IC50": "33 µM"
  },
  {
    "Compound": "O=C(NC1CCOC1)c1ccc2cc(Oc3ccc(C(F)(F)F)cn3)ccc2n1 (stereo not given)",
    "IC50": "33 µM"
  },
  {
    "Compound": "O=C(c1ccc2cc(Oc3ccc(C(F)(F)F)cn3)ccc2n1)N1CC[C@H](F)C1",
    "IC50": "33 µM"
  },
  {
    "Compound": "O=C(N[C@H]1C[C@@H](O)C1)c1ccc2cc(Oc3ccc(C(F)(F)F)cn3)ccc2n1",
    "IC50": "33 µM"
  }
]

Which IC50 value is on record for `CN1CCN(C(=O)COc2ccc3cc(Oc4ccccn4)ccc3n2)CC1` ?
33 µM

Query: IC50; subject: `O=C(NC1CCC1)c1ccc2cc(Oc3ccc(C(F)(F)F)cn3)ccc2n1`
31.3 µM

Requested field: IC50. Item: `O=C(N[C@@H]1CCOC1=O)c1ccc2cc(Oc3ccc(C(F)(F)F)cn3)ccc2n1`
33 µM

# get_value(readout='IC50', item= `O=C(c1ccc2cc(Oc3ccc(C(F)(F)F)cn3)ccc2n1)N1CCCC1` )
33 µM

Entry `O=C(c1ccc2cc(Oc3ccc(C(F)(F)F)cn3)ccc2n1)N1CC[C@@H](F)C1` : reported IC50 = ?
33 µM

May I ask what IC50 has been recorded for `O=C(c1ccc2cc(Oc3ccc(C(F)(F)F)cn3)ccc2n1)N1CC(F)(F)C1` ?
10.2 µM

If you can, please state the reported IC50 value of O=C(NC1CC(F)C1)c1ccc2cc(Oc3ccc(C(F)(F)F)cn3)ccc2n1 (stereo not given) .
33 µM

Please look up its IC50: `O=C(c1ccc2cc(Oc3ccc(C(F)(F)F)cn3)ccc2n1)N1CCC1`
33 µM

For the compound shown here, O=C(c1ccc2cc(Oc3ccc(C(F)(F)F)cn3)ccc2n1)N1CCNC(C(F)(F)F)C1 (stereo not given) , give the reported IC50.
33 µM

IC50 for `O=C(c1ccc2cc(Oc3ccc(C(F)(F)F)cn3)ccc2n1)N1CCN(CC(F)(F)F)CC1` ?
33 µM

Quick one: IC50 of `N#Cc1ccc(Oc2ccc3c(ccc(=O)n3CCN3CCCCC3)c2)cc1` ?
1.6 µM

---

experiment: physchem; conditions: phosphate buffer
Measured solubility, listed per entry.
State the answer as a number, implicitly in µM.

[
  {
    "Molecule": "O=C(c1ccc2cc(Oc3ccc(C(F)(F)F)cn3)ccc2n1)N1CCN(CC(F)(F)F)CC1",
    "Metric Name": "solubility",
    "Value Units": "µM",
    "Recorded Result": 46
  },
  {
    "Molecule": "N#Cc1ccc(Oc2ccc3nc(OCC(=O)NCC(N)=O)ccc3c2)cc1",
    "Metric Name": "solubility",
    "Value Units": "µM",
    "Recorded Result": 0.824
  },
  {
    "Molecule": "O=C(NC1CC(F)C1)c1ccc2cc(Oc3ccc(C(F)(F)F)cn3)ccc2n1 (configuration not stated)",
    "Metric Name": "solubility",
    "Value Units": "µM",
    "Recorded Result": 5
  },
  {
    "Molecule": "O=C1CN(C(=O)COc2ccc3cc(Oc4ccccn4)ccc3n2)CCN1",
    "Metric Name": "solubility",
    "Value Units": "µM",
    "Recorded Result": 200
  },
  {
    "Molecule": "NC(=O)CNC(=O)COc1ccc2cc(Oc3ccccn3)ccc2n1",
    "Metric Name": "solubility",
    "Value Units": "µM",
    "Recorded Result": 57.5
  },
  {
    "Molecule": "O=C(c1ccc2cc(Oc3ccc(C(F)(F)F)cn3)ccc2n1)N1CC[C@@H](F)C1",
    "Metric Name": "solubility",
    "Value Units": "µM",
    "Recorded Result": 84
  }
]

What measured solubility goes with `CN1CCN(C(=O)c2ccc3cc(Oc4ccccn4)ccc3n2)CC1` ?
200

So what does the record say about solubility for `N#Cc1ccc(COc2ccc3nc(C(=O)N4CCNCC4)ccc3c2)cc1` ?
143

May I ask what solubility has been recorded for `O=C(NC1CCC1)c1ccc2cc(Oc3ccc(C(F)(F)F)cn3)ccc2n1` ?
5

Reported solubility for `N#Cc1ccc(Oc2ccc3c(ccc(=O)n3CCN3CCCCC3)c2)cc1` : what is it?
140

Item under review: `O=C(c1ccc2cc(Oc3cccc(C(F)(F)F)n3)ccc2n1)N1CCNCC1` . Reported solubility?
200

Fill in the blank: the reported solubility of O=C(c1ccc2cc(Oc3ccc(C(F)(F)F)cn3)ccc2n1)N1CCNC(C(F)(F)F)C1 (configuration not stated) is ____.
78

Return reported solubility; argument: `O=C(COc1ccc2cc(Oc3ccccn3)ccc2n1)N1CCCCC1`
156

Give the measured solubility of `O=C(c1ccc2cc(Oc3ccc(C(F)(F)F)cn3)ccc2n1)N1CCNCC1` .
200

Consider the molecule shown here: `N#Cc1ccc(Oc2ccc3nc(OCC(=O)N4CCNC(=O)C4)ccc3c2)cc1` What is its recorded solubility?
141

# solubility lookup, item `O=C(c1ccc2cc(Oc3cnc(C(F)(F)F)cn3)ccc2n1)N1CCNCC1`
149
